Please respond with reported TGI for every item in the list.
Tested on: SR leukemia
assay notes: NCI tumour cell line growth inhibition, 48 h

Need TGI, item CC(=O)n1cc(OP(=O)(Oc2ccccc2)Oc2ccccc2)c2ccccc21 72.4 µM

Request: C#CCN(N=O)C(=O)NCCCCC(NC(C)=O)C(=O)NCc1ccccc1 (stereo not given) > 100 µM

And the next one, COc1cc2c(cc1O)C1(Cc3ccc4c(c3C1=O)OCO4)N(C)CC2 (stereo not given) ? > 100 µM

Subsequent entry: CC(=[N-])N1CCC[C@@H](Nc2c3ccccc3nc3ccccc23)C1.[Cl][Pt].[NH-]CCC[NH-] > 100 µM

Same read-out for C=C1C(OC(=O)/C=C/c2ccccc2)CC(OC(C)=O)C2(C)C1CC1CC(OC(C)=O)C(C)=C(C(OC(C)=O)C2OC(C)=O)C1(C)C (stereo not given) ? > 100 µM
